Documented Emax across a set of molecules
- Experimental system: M1 muscarinic receptor (Homo sapiens, UniProt P11229)
- Construct: expressed in transfected cells; host or cells: CHO (M1-CHO)
- Sequence (P11229 1-460): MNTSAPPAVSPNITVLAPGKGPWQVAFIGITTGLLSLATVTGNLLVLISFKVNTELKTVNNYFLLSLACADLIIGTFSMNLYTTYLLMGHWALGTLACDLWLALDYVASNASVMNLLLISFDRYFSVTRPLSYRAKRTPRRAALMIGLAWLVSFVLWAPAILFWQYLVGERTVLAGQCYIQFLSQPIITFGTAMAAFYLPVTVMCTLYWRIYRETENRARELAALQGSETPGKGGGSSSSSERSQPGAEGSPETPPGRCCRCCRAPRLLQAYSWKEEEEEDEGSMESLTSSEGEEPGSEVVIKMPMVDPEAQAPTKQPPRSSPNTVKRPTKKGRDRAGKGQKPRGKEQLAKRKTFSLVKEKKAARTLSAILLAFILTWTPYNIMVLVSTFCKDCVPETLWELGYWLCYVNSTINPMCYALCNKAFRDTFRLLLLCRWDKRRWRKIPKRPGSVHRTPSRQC
- Assay: Functional mobilization of intracellular calcium (FLIPR), M1-CHO cells
- Type: cell-based
- Setup conditions: 100% efficacy = maximum response obtained with the Carbachol control

Answered cases to consult:
>  <Molecule>
Cc1ccc(Cl)cc1C1CCN(C2CC[C@H]3CC[C@H]2C3)CC1 (some centres unmarked)

>  <Experimental system>
M1 muscarinic receptor (Homo sapiens, UniProt P11229)

>  <Emax>
25 to 100%

$$$$
>  <Molecule>
COc1ccc(-c2ccc(F)cc2)cc1C1CCN([C@H]2C[C@H]3CC[C@H]2C3)CC1

>  <Experimental system>
M1 muscarinic receptor (Homo sapiens, UniProt P11229)

>  <Emax>
25 to 100%

$$$$
>  <Molecule>
COc1ccc(F)cc1C1CCN(C2CCCCC2)CC1

>  <Experimental system>
M1 muscarinic receptor (Homo sapiens, UniProt P11229)

>  <Emax>
25 to 100%

$$$$
>  <Molecule>
COc1ccccc1C1CCN([C@@H]2C[C@H]3CC[C@H]2C3)CC1

>  <Experimental system>
M1 muscarinic receptor (Homo sapiens, UniProt P11229)

>  <Emax>
25 to 100%

$$$$
>  <Molecule>
COc1cc(F)ccc1C1CCN([C@H]2C[C@H]3CC[C@H]2C3)CC1

>  <Experimental system>
M1 muscarinic receptor (Homo sapiens, UniProt P11229)

>  <Emax>
25 to 100%

$$$$
>  <Molecule>
COc1ccc(C(=O)COc2ccccc2C2CCN([C@H]3C[C@H]4CC[C@H]3C4)CC2)cc1

>  <Experimental system>
M1 muscarinic receptor (Homo sapiens, UniProt P11229)

>  <Emax>
25 to 100%

$$$$
>  <Molecule>
Cc1c(C2CCN(C3C[C@H]4CC[C@H]3C4)CC2)cccc1C(F)(F)F (some centres unmarked)

>  <Experimental system>
M1 muscarinic receptor (Homo sapiens, UniProt P11229)

>  <Emax>
25 to 100%

$$$$
>  <Molecule>
COc1ccc(Cl)cc1C1CCN(C2CC3CCC(C3)C2)CC1 (centres unmarked)

>  <Experimental system>
M1 muscarinic receptor (Homo sapiens, UniProt P11229)

>  <Emax>
25 to 100%

$$$$
>  <Molecule>
COc1ccc(Br)cc1C1CCN([C@@H]2C[C@@H]3CC[C@H]2C3)CC1

>  <Experimental system>
M1 muscarinic receptor (Homo sapiens, UniProt P11229)

>  <Emax>
25 to 100%

$$$$
>  <Molecule>
CCOC(=O)N1CCC(CN2CCC(c3cc(-c4ccc(C(=O)NC)cc4)ccc3OC)CC2)CC1

>  <Experimental system>
M1 muscarinic receptor (Homo sapiens, UniProt P11229)

>  <Emax>
25 to 100%

$$$$

State its Emax: COc1ccccc1C1CCN(C2CC(c3ccccc3)C(c3ccccc3)C2)CC1 (centres unmarked)
25 to 100%

For the molecule CCOC(=O)N1C2CCC1CC(CN1CCC(c3ccccc3OC)CC1)C2 (centres unmarked) , report Emax.
25 to 100%

Find the measured Emax of COc1ccc(Cl)cc1C1(F)CCN(C[C@@H]2C[C@H]3C=C[C@H]2C3)CC1 and report it.
25 to 100%

Reference source for all entries: patent US7880007B2
